test system: phospho-ERK in MIA PaCa2 or H358 cells; assay: Phospho-ERK assay (AlphaLisa); type: cell-based; conditions: 1.5 h, MIA PaCa2 or H358 cells, compound incubated 1.5 hours; read-out: IC50 (p-ERK)
property: IC50

Form field IC50, entry C[C@@H]1OCC2(CCN(c3cnc(Sc4ccc5ncn(CC(C)(C)F)c(=O)c5c4Cl)cn3)CC2)[C@@H]1N [Example 139] : 45 to 1500 nM

Form field IC50, entry CC(c1ccccc1)n1cnc2ccc(Sc3cnc(N4CCC5(CC4)CO[C@@H](C)[C@H]5N)cn3)c(Cl)c2c1=O (stereo partly shown) [Example 32] : 45 to 1500 nM

Form field IC50, entry C[C@@H]1OCC2(CCN(c3cnc(Sc4ccc5ncn(Cc6cccc(C(F)(F)F)c6)c(=O)c5c4Cl)cn3)CC2)[C@@H]1N [Example 34] : 45 to 1500 nM

Form field IC50, entry COCCn1cnc2ccc(Sc3ncc(N4CCC5(CC4)Cc4ncccc4[C@H]5N)nc3N)c(Cl)c2c1=O [Example 134] : 45 to 1500 nM

====

Target: SHP2 (full length) (Homo sapiens, UniProt Q06124)
Construct: SHP2 (full length, diluted to 100 pM final concentration in reaction buffer, BPS bioscience, US); purchased BPS bioscience, US
Sequence (Q06124 1-593): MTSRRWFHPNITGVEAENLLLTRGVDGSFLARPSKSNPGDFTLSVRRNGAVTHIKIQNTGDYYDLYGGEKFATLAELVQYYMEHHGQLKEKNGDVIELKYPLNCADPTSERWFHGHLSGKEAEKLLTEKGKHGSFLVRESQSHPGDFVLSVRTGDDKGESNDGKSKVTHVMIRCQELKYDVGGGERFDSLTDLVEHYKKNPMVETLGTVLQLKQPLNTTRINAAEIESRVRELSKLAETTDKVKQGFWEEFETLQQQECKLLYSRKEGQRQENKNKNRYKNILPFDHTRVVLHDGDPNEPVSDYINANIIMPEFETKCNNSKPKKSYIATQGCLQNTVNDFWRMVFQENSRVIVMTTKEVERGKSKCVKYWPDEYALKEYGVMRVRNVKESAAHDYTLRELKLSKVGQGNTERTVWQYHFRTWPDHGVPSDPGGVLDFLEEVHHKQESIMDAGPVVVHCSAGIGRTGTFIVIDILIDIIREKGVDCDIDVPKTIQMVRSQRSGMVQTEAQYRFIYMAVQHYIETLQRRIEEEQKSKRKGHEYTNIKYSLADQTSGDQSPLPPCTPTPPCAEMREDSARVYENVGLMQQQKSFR
Assay: Phosphatase assay (PTPase assay) with DiFMUP substrate
Assay type: biochemical
Conditions: SHP2 activated with SHP2 activating peptide; DiFMUP 80 μM, 2 hours; fluorescence; read-out: IC50 (PTPase aS say)
property: IC50

Form field IC50, entry COc1ccc(C)cc1Cn1cnc2ccc(Sc3cnc(N4CCC5(CC4)CO[C@@H](C)[C@H]5N)cn3)c(Cl)c2c1=O : < 3 nM

====

molecular target: SHP2 (full length) (Homo sapiens); construct: SHP2 (full length, diluted to 100 pM final concentration in reaction buffer, BPS bioscience, US); purchased BPS bioscience, US; test: Phosphatase assay (PTPase assay) with DiFMUP substrate; assay type: biochemical; conditions: SHP2 activated with SHP2 activating peptide; DiFMUP 80 μM, 2 hours; fluorescence; read-out: IC50 (PTPase aS say)
Each entry below carries its reported IC50.

| compound | IC50 |
| --- | --- |
| N[C@H]1c2cccnc2CC12CCN(c1cnc(Sc3ccc4ncn(Cc5cccnc5)c(=O)c4c3Cl)cn1)CC2 [Example 106] | 3 to 100 nM |
| Cn1c(N2CCCN(CCN)CC2)nc(N)c(Sc2cccc(Cl)c2Cl)c1=O [Example 200] | > 100 nM |
| C[C@@H]1OCC2(CCN(c3cnc(Sc4ccc5ncn(Cc6nccs6)c(=O)c5c4Cl)cn3)CC2)[C@@H]1N [Example 35] | < 3 nM |
| CC(C)(O)Cn1cnc2ccc(Sc3ncc(N4CCC5(CC4)Cc4scnc4[C@H]5N)nc3N)c(Cl)c2c1=O [Example 165] | < 3 nM |
| C[C@@H]1OCC2(CCN(c3cnc(Sc4ccc5ncn(CCS(C)(=O)=O)c(=O)c5c4Cl)cn3)CC2)[C@@H]1N [Example 82] | < 3 nM |
| Cn1c(N2CCN(C[C@@H](N)Cc3ccncc3)CC2)nc(N)c(Sc2cccc(Cl)c2Cl)c1=O [Example 187] | > 100 nM |

Log: SHP2 (full length) (Homo sapiens), compound Cn1c(N2CCN[C@@H](CN)C2)nc(N)c(Sc2cccc(Cl)c2Cl)c1=O [Example 196] , IC50 = > 100 nM

====

biological target: SHP2 (full length) (Homo sapiens, UniProt Q06124); construct: SHP2 (full length, diluted to 100 pM final concentration in reaction buffer, BPS bioscience, US); purchased BPS bioscience, US; test: Phosphatase assay (PTPase assay) with DiFMUP substrate; assay type: biochemical; details: SHP2 activated with SHP2 activating peptide; DiFMUP 80 μM, 2 hours; fluorescence; read-out: IC50 (PTPase aS say)
property: IC50

| compound | property | result |
| --- | --- | --- |
| CC(C)(O)Cn1cnc2ccc(Sc3cnc(N4CCC5(CC4)Cc4ncccc4[C@@H]5N)cn3)c(Cl)c2c1=O | IC50 | < 3 nM |
| COCCn1cnc2ccc(Sc3ncc(N4CCC5(CC4)Cc4ncsc4[C@H]5N)nc3N)c(Cl)c2c1=O | IC50 | < 3 nM |
| COCCn1cnc2ccc(Sc3cnc(N4CCC5(CC4)Cc4ncsc4[C@H]5N)c(CO)n3)c(Cl)c2c1=O | IC50 | < 3 nM |
| CC1(N)CCN(c2cnc(Sc3ccc4ncn(Cc5cccc([N+](=O)[O-])c5)c(=O)c4c3Cl)cn2)CC1 | IC50 | 3 to 100 nM |

Form field IC50, entry C[C@@H]1OCC2(CCN(c3cnc(Sc4ccc5ncn(Cc6ccc(F)cc6)c(=O)c5c4Cl)cn3)CC2)[C@@H]1N : < 3 nM

Form field IC50, entry COCCn1cnc2ccc(Sc3cnc(N4CCC5(CC4)CO[C@@H](C)[C@H]5N)c(CO)n3)c(Cl)c2c1=O : < 3 nM

Form field IC50, entry Cc1nc2ccc(Sc3cnc(N4CCC(C)(N)CC4)cn3)c(Cl)c2s1 : 3 to 100 nM

Form field IC50, entry N[C@H]1c2ccccc2CC12CCN(c1cnc(Sc3ccc4ncn(Cc5ccccc5)c(=O)c4c3Cl)cn1)CC2 : 3 to 100 nM

Form field IC50, entry Cn1cc2c(Cl)c(Sc3cnc(N4CCC(C)(N)CC4)cn3)ccc2n1 : 3 to 100 nM

Form field IC50, entry CC(C)(O)Cn1cnc2ccc(Sc3cnc(N4CCC5(CC4)Cc4ncsc4[C@H]5N)cn3)c(Cl)c2c1=O : < 3 nM

Form field IC50, entry Cn1c(N2CCN[C@H](CN)C2)nc(N)c(Sc2cccc(Cl)c2Cl)c1=O : 3 to 100 nM

Form field IC50, entry C[C@@H]1OCC2(CCN(c3cnc(Sc4ccc5ncn(CC6CCOC6)c(=O)c5c4Cl)cn3)CC2)[C@@H]1N (stereo partly drawn) : < 3 nM

Form field IC50, entry COC(=O)c1cccc(Sc2cnc(N3CCC(C)(N)CC3)cn2)c1Cl : 3 to 100 nM

Form field IC50, entry N[C@@H]1c2ccccc2CC12CCN(c1cnc(Sc3ccc4ncn(CC5CCOC5)c(=O)c4c3Cl)cn1)CC2 (stereo partly drawn) : < 3 nM

Form field IC50, entry COCCn1cnc2ccc(Sc3cnc(N4CCC5(CCC[C@H]5N)CC4)cn3)c(Cl)c2c1=O : < 3 nM

====

tested on: phospho-ERK in MIA PaCa2 or H358 cells; assay: Phospho-ERK assay (AlphaLisa); format: cell-based; conditions: 1.5 h, MIA PaCa2 or H358 cells, compound incubated 1.5 hours; read-out: IC50 (p-ERK)
Each entry below carries its reported IC50.

| molecule | target.or.test.system | IC50 |
| --- | --- | --- |
| Cn1c(N2CCCN(CCN)CC2)nc(N)c(Sc2cccc(Cl)c2Cl)c1=O | phospho-ERK in MIA PaCa2 or H358 cells | > 1500 nM |
| Cn1c(N2CCC(C)(N)CC2)nc(N)c(Sc2ccc3ncn(-c4ccccc4)c(=O)c3c2Cl)c1=O | phospho-ERK in MIA PaCa2 or H358 cells | > 1500 nM |
| C[C@@H]1OCC2(CCN(c3cnc(Sc4ccc5ncn(CCN6CCCC6)c(=O)c5c4Cl)cn3)CC2)[C@@H]1N | phospho-ERK in MIA PaCa2 or H358 cells | 45 to 1500 nM |

Moving on to another molecule below.
Form field IC50, entry C[C@@H]1OCC2(CCN(c3cnc(Sc4ccc5c(nc(OC6CCOC6)n5C)c4Cl)cn3)CC2)[C@@H]1N (stereo partly shown) : < 45 nM

Data credit: patent US12029739B2
